Biological target: Aurora B/INCENP (Homo sapiens, UniProt Q96GD4)
Sequence (Q96GD4 whole entry): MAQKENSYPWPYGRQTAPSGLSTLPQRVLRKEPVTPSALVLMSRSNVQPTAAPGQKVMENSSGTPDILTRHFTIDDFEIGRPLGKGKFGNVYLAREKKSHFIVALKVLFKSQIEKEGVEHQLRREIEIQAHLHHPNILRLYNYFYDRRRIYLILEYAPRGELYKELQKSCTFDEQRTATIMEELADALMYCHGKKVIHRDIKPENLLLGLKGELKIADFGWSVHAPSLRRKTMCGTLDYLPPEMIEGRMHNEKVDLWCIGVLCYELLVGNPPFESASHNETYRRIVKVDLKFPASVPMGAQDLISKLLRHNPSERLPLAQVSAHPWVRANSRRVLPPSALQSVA
Sequence (Q9NQS7 whole entry partner): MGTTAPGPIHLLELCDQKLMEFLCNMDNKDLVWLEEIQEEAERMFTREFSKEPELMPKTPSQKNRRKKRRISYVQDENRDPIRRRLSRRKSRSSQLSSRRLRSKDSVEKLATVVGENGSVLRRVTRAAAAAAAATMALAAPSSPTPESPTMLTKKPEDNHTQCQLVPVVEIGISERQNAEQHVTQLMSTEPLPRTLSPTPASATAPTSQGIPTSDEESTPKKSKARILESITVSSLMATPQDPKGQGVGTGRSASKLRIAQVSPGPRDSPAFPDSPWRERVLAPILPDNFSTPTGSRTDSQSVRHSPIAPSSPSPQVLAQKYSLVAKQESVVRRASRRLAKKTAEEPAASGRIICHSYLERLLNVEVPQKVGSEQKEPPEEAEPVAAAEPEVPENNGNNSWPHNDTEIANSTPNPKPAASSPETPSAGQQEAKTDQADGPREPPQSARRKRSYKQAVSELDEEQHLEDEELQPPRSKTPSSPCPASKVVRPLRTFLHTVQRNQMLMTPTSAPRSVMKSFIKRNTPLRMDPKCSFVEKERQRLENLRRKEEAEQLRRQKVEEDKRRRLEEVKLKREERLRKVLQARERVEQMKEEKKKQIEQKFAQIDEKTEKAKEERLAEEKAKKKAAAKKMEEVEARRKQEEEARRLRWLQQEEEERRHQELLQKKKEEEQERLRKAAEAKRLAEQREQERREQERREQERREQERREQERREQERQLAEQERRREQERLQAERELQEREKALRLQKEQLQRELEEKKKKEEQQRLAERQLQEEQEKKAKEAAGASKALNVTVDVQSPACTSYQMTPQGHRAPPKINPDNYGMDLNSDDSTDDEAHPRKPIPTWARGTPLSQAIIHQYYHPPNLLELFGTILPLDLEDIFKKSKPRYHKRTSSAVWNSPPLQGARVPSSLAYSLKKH
Assay: Determination of inhibition of AIK: Aurora B/INCENP Direct Fluorescence Polarization (IMAP) assay
Details: 10 uM ATP, 0.8 nM Aurora B/INCENP, 45 min at room temperature; read-out: IC50 of Exemplified Compounds Against AIK B
pIC50: −log10 of the molar value.
Reported values of pIC50 for individual entries
quantityName: pIC50

                                querysmiles  quantityname  reportedvalue
0  Cc1cnc2[nH]c3c(OCC4CCN(C)CC4)ccc(-c4cccc(S(=O)(=O)C5CC5)c4)c3c2c1         pIC50   8.00 to 8.22
1  CCN1CCC(NC(=O)c2cc(-c3cccc(S(=O)(=O)CC)c3)c3c([nH]c4ncc(C)cc43)c2C)CC1         pIC50         ≤ 7.96
2  CCS(=O)(=O)c1cccc(-c2cnc(OCC3CCN(C)CC3)c3[nH]c4ncc(C)cc4c23)c1         pIC50   8.00 to 8.22

----------
Target: Aurora B/INCENP (Homo sapiens, UniProt Q96GD4)
Assay: Determination of inhibition of AIK: Aurora B/INCENP Direct Fluorescence Polarization (IMAP) assay
Settings: 10 uM ATP, 0.8 nM Aurora B/INCENP, 45 min at room temperature; read-out: IC50 of Exemplified Compounds Against AIK B
pIC50: −log10 of the molar value.
Reported values of pIC50 for individual entries
quantityName: pIC50

In [3]: df
Out[3]:
                                    compound  quantityname  reportedvalue
 0  Cc1cnc2[nH]c3c(C)c(C(=O)NC4CCN(C)CC4)cc(-c4cccc(S(=O)(=O)C5CC5)c4)c3c2c1         pIC50   8.00 to 8.22
 1  CCN(CCCOc1ccc(-c2cccc(S(=O)(=O)C3CC3)c2)c2c1[nH]c1ncc(C)cc12)CCOP(=O)(O)O         pIC50   8.00 to 8.22
 2  CCS(=O)(=O)c1cccc(-c2cc(C(=O)N[C@H]3CCCN(C)C3)c(C)c3[nH]c4ncc(C)cc4c23)c1         pIC50         ≤ 7.96
 3  CCS(=O)(=O)c1cccc(-c2ccc(OCC(F)(F)F)c3[nH]c4ncc(C)cc4c23)c1         pIC50         ≤ 7.96
 4  CCS(=O)(=O)c1cccc(-c2ccc(OCC3CCN(C)CC3)c3[nH]c4ncc(C)cc4c23)c1         pIC50   8.00 to 8.22
 5  Cc1cnc2[nH]c3c(C)c(C(=O)NC4CCN(C)CC4)cc(-c4cccc(NC(=O)C5CC5)c4)c3c2c1         pIC50   8.00 to 8.22
 6  c1ccc(-c2cccc3[nH]c4ncccc4c23)cc1 [Compound 5, 5-phenyl-9H-pyrido[2,3-b]indole]         pIC50         ≤ 7.96
 7  CCS(=O)(=O)c1cccc(-c2cnc(OCCCN(C)C)c3[nH]c4ncc(C)cc4c23)c1         pIC50   8.00 to 8.22
 8  CCNS(=O)(=O)c1cccc(-c2ccc(OCCCN(C)C)c3[nH]c4ncc(C)cc4c23)c1         pIC50   8.00 to 8.22
 9  CCS(=O)(=O)c1cccc(-c2cc(C(=O)NCCOC)c(C)c3[nH]c4ncc(C)cc4c23)c1         pIC50   8.00 to 8.22
10  CCS(=O)(=O)c1cccc(-c2ccc(OCCCN(C)CCOP(=O)(O)O)c3[nH]c4ncc(C)cc4c23)c1         pIC50         ≥ 8.30
11  CCS(=O)(=O)c1cccc(-c2cc(C(=O)NCC3CCN(C)CC3)c(C)c3[nH]c4ncc(C)cc4c23)c1         pIC50         ≤ 7.96
12  CN1CCC(COc2ccc(-c3cccc(S(=O)(=O)C4CC4)c3)c3c2[nH]c2ncc(Cl)cc23)CC1         pIC50   8.00 to 8.22
13  CCN(CCCOc1ccc(-c2cccc(S(=O)(=O)C3CC3)c2)c2c1[nH]c1ncc(C)cc12)CCOP(=O)(OC(C)(C)C)OC(C)(C)C         pIC50         ≥ 8.30

This collection of values is drawn from patent US20100120717A1.
